- System: MT-4 cells
- experiment-description: cytotoxicity: viability of mock-infected MT-4 host cells (MTT method)
- Assay type: cell-based
- Parameters: unit not given here
- study-conditions: mock-infected MT-4 cells, marker a (undefined, shared with AZT^a)
measured-parameter: CD50
Kindly provide the number alone.

Could you share what CD50 was measured for Cc1cc(C)cc(Sc2c(C(C)C)c(=O)[nH]c(=O)n2CC2CC=CC2)c1 , tested on MT-4 cells?
11.40

Could you share what CD50 was measured for Cc1cn([C@H]2C[C@H](N=[N+]=[N-])[C@@H](CO)O2)c(=O)[nH]c1=O [AZT, reference compound] , tested on MT-4 cells?
1.13

Could you share what CD50 was measured for Cc1cc(C)cc(C(=O)c2c(C(C)C)c(=O)[nH]c(=O)n2CC2CC=CC2)c1 , tested on MT-4 cells?
19.16

Could you share what CD50 was measured for Cc1cc(C)cc(Oc2c(C(C)C)c(=O)[nH]c(=O)n2CC2CC=CC2)c1 , tested on MT-4 cells?
10.07

* * *

- Test system: MT-4 cells
- experiment-description: cytotoxicity: viability of mock-infected MT-4 host cells (MTT method)
- Format: cell-based
- Parameters: unit not given here
- study-conditions: mock-infected MT-4 cells, marker b (undefined, shared with AZT^b)
measured-parameter: CD50
Kindly provide the number alone.

Could you share what CD50 was measured for CCc1c(Oc2cc(C)cc(C)c2)n(CC2CC=CC2)c(=O)[nH]c1=O [Example 14] , tested on MT-4 cells?
16.81

Could you share what CD50 was measured for Cc1cc(C)cc(Sc2c(C(C)C)c(=O)[nH]c(=O)n2CC2CCCC2)c1 [Example 20] , tested on MT-4 cells?
11.38

Could you share what CD50 was measured for Cc1cc(C)cc(C(=O)c2c(C(C)C)c(=O)[nH]c(=O)n2CC2CCCC2)c1 [Example 22] , tested on MT-4 cells?
9.97

Could you share what CD50 was measured for Cc1cn([C@H]2C[C@H](N=[N+]=[N-])[C@@H](CO)O2)c(=O)[nH]c1=O [AZT, reference compound] , tested on MT-4 cells?
0.73

Could you share what CD50 was measured for Cc1cc(C)cc(Oc2c(C(C)C)c(=O)[nH]c(=O)n2CC2CCCC2)c1 [Example 21] , tested on MT-4 cells?
10.04

* * *

What S.I. was measured for each of the following?
- System: HIV
- Assay type: cell-based
- study-conditions: ratio CD50/ED50; marker c (undefined, shared with AZT^c)

Data request, read-out S.I., for CCc1c(C(=O)c2cc(C)cc(C)c2)n(CC2CC2(CO)CO)c(=O)[nH]c1=O (stereo not drawn) [Example 51]
12,165

Data request, read-out S.I., for Cc1cc(C)cc(Oc2c(C(C)C)c(=O)[nH]c(=O)n2CC2CC2(CO)CO)c1 (stereo not drawn) [Example 54]
3,004

Data request, read-out S.I., for Cc1cc(C)cc(C(=O)c2c(C(C)C)c(=O)[nH]c(=O)n2CC2CC2(CO)CO)c1 (stereo not drawn) [Example 55]
21,806

Data request, read-out S.I., for Cc1cc(C)cc(Sc2c(C(C)C)c(=O)[nH]c(=O)n2CC2CC2(CO)CO)c1 (stereo not drawn) [Example 53]
7,199

Data request, read-out S.I., for CC(C)c1c(Sc2ccccc2)n(CC2CC2(CO)CO)c(=O)[nH]c1=O (stereo not drawn) [Example 52]
1,496

Data request, read-out S.I., for CCc1c(Sc2cc(C)cc(C)c2)n(CC2CC2(CO)CO)c(=O)[nH]c1=O (stereo not drawn) [Example 49]
18,271

Data request, read-out S.I., for CCc1c(Sc2ccccc2)n(CC2CC2(CO)CO)c(=O)[nH]c1=O (stereo not drawn) [Example 48]
923

Data request, read-out S.I., for CCc1c(Oc2cc(C)cc(C)c2)n(CC2CC2(CO)CO)c(=O)[nH]c1=O (stereo not drawn) [Example 50]
7,763

Data request, read-out S.I., for Cc1cn([C@H]2C[C@H](N=[N+]=[N-])[C@@H](CO)O2)c(=O)[nH]c1=O [AZT, reference compound]
83
